System: Rattus norvegicus
assay_protocol: Antianxiety activity in Wistar rat assessed as increase in number of sniffing cell examinations at 50 mg/kg, ip measured for 5 mins by open field test
Format: functional, organism-based
Active and inactive are the calls of the source. The rule behind the calls is not given here.
endpoint_name: Activity

Consider the worked cases shown below.
[
  {
    "molecule": "Cc1ccc(Nc2c(C#N)c3c(c4nnc(SCC(=O)N(c5ccccc5)c5ccccc5)n24)COC(C)(C)C3)cc1",
    "measurement_target": "Rattus norvegicus",
    "Activity": "Active"
  },
  {
    "molecule": "COc1ccc(CSc2nnc3c4c(c(C#N)c(Nc5ccc(C)cc5)n23)CC(C)(C)OC4)cc1",
    "measurement_target": "Rattus norvegicus",
    "Activity": "Active"
  },
  {
    "molecule": "CC1(C)Cc2c(C#N)c(Nc3ccccc3)n3c(SCCCc4ccccc4)nnc3c2CO1",
    "measurement_target": "Rattus norvegicus",
    "Activity": "Active"
  },
  {
    "molecule": "CC1(C)Cc2c(C#N)c(Nc3ccccc3)n3c(SCC(=O)c4cccc([N+](=O)[O-])c4)nnc3c2CO1",
    "measurement_target": "Rattus norvegicus",
    "Activity": "Active"
  },
  {
    "molecule": "CCOC(=O)C(Sc1nnc2c3c(c(C#N)c(Nc4ccccc4)n12)CC(C)(C)OC3)c1ccccc1 (stereo unspecified)",
    "measurement_target": "Rattus norvegicus",
    "Activity": "Active"
  }
]

// below: Activity requested for another molecule
Ask | Provide Rattus norvegicus Activity reading for `CC1(C)Cc2c(C#N)c(Nc3ccccc3)n3c(SCC(=O)N(c4ccccc4)c4ccccc4)nnc3c2CO1` .
Reply | Active

====

Tested on: Mus musculus
assay_protocol: Anticonvulsant activity in mouse assessed as proportion of animals displaying reduction in PTZ-induced clonic seizures at 50 mg/kg, ip administered 45 mins before PTZ stimulation relative to control
Type: functional
Parameters: scale not given: the % may be the effect or the level left
endpoint_name: Activity (%)
Express it in %; write the number only.

Recorded Activity, per entry:
[
  {
    "compound": "CC1(C)Cc2c(C#N)c(Nc3ccccc3)n3c(SCCCc4ccccc4)nnc3c2CO1",
    "endpoint_name": "Activity",
    "readout_number": 60
  },
  {
    "compound": "CC1(C)Cc2c(C#N)c(Nc3ccccc3)n3c(SCC(=O)c4cccc([N+](=O)[O-])c4)nnc3c2CO1",
    "endpoint_name": "Activity",
    "readout_number": 60
  },
  {
    "compound": "COc1ccc(CSc2nnc3c4c(c(C#N)c(Nc5ccc(C)cc5)n23)CC(C)(C)OC4)cc1",
    "endpoint_name": "Activity",
    "readout_number": 60
  },
  {
    "compound": "Cc1ccc(Nc2c(C#N)c3c(c4nnc(SCc5ccccc5Cl)n24)COC(C)(C)C3)cc1",
    "endpoint_name": "Activity",
    "readout_number": 40
  },
  {
    "compound": "CC1(C)Cc2c(C#N)c(Nc3ccccc3)n3c(SCC(=O)c4ccc([N+](=O)[O-])cc4)nnc3c2CO1",
    "endpoint_name": "Activity",
    "readout_number": 40
  }
]

Ask | Provide only the value of recorded Activity for `Cc1ccc(Nc2c(C#N)c3c(c4nnc(SCc5ccc([N+](=O)[O-])cc5)n24)COC(C)(C)C3)cc1`
Reply | 40

Ask | # return recorded Activity for entry `CC1(C)Cc2c(C#N)c(Nc3ccccc3)n3c(SCC(=O)Nc4ccc(Cl)c(Cl)c4)nnc3c2CO1`
Reply | 20

Ask | Specify measured Activity for `CCCCN(CCCC)C(=O)CSc1nnc2c3c(c(C#N)c(Nc4ccccc4)n12)CC(C)(C)OC3` .
Reply | 20

====

assay_protocol: Neurotoxicity in ip dosed mouse assessed as maximum tolerated dose by rotarod test
Type: toxicity, organism-based
run_conditions: in vivo
Each record here notes measured MTD.
Report as a plain number; the unit mg/kg is understood.

Examples with answers:
[
  {
    "molecule": "CC1(C)Cc2c(C#N)c(Nc3ccccc3)n3c(SCC(=O)c4ccc([N+](=O)[O-])cc4)nnc3c2CO1",
    "MTD (mg/kg)": 1250
  },
  {
    "molecule": "Cc1cccc(NC(=O)CSc2nnc3c4c(c(C#N)c(Nc5ccccc5)n23)CC(C)(C)OC4)c1",
    "MTD (mg/kg)": 1300
  },
  {
    "molecule": "CN1C(=O)CN=C(c2ccccc2)c2cc(Cl)ccc21 [DIAZEPAM]",
    "MTD (mg/kg)": 200
  }
]

Ask | Using the record for `COc1ccc(NC(=O)CSc2nnc3c4c(c(C#N)c(Nc5ccc(C)cc5)n23)CC(C)(C)OC4)cc1` , state its measured MTD.
Reply | 1250

Ask | Please supply the value of reported MTD for the item `CC1(C)Cc2c(C#N)c(Nc3ccccc3)n3c(SCC(=O)Nc4ccc(Cl)c(Cl)c4)nnc3c2CO1`
Reply | 1150

Ask | Write down MTD measured for item `CC1(C)Cc2c(C#N)c(Nc3ccccc3)n3c(SCC(=O)c4cccc([N+](=O)[O-])c4)nnc3c2CO1`
Reply | 1000

Ask | Identify measured MTD associated with `CC1(C)Cc2c(C#N)c(Nc3ccccc3)n3c(SCCCc4ccccc4)nnc3c2CO1`
Reply | 1250

Ask | Query MTD for `CCCCN(CCCC)C(=O)CSc1nnc2c3c(c(C#N)c(Nc4ccccc4)n12)CC(C)(C)OC3`
Reply | 1000

Ask | Please report MTD for the following molecule: `COc1cccc(NC(=O)CSc2nnc3c4c(c(C#N)c(Nc5ccc(C)cc5)n23)CC(C)(C)OC4)c1`
Reply | 1100

====

assay_protocol: Neurotoxicity in ip dosed mouse assessed as myorelaxation measured for 2 mins by rotarod test
Type: toxicity, organism-based
run_conditions: in vivo
# TD50 at 2 min values compiled below

Previously resolved entries follow.
[
  {
    "smiles_record": "COc1ccc(NC(=O)CSc2nnc3c4c(c(C#N)c(Nc5ccc(C)cc5)n23)CC(C)(C)OC4)cc1",
    "result": "> 500 mg/kg"
  },
  {
    "smiles_record": "CC1(C)Cc2c(C#N)c(Nc3ccccc3)n3c(SCC(=O)c4ccc([N+](=O)[O-])cc4)nnc3c2CO1",
    "result": "> 520 mg/kg"
  },
  {
    "smiles_record": "Cc1ccc(Nc2c(C#N)c3c(c4nnc(SCc5ccc([N+](=O)[O-])cc5)n24)COC(C)(C)C3)cc1",
    "result": "> 500 mg/kg"
  }
]

Ask | Write down TD50 at 2 min measured for item `Cc1cccc(NC(=O)CSc2nnc3c4c(c(C#N)c(Nc5ccccc5)n23)CC(C)(C)OC4)c1`
Reply | > 500 mg/kg

====

assay_protocol: Neurotoxicity in ip dosed mouse assessed as maximum tolerated dose by rotarod test
Type: toxicity, organism-based
run_conditions: in vivo
endpoint_name: MTD (mg/kg)
Value expressed in mg/kg; do not type the unit.

Study these solved cases before continuing.
[
  {
    "molecule": "COc1ccc(CSc2nnc3c4c(c(C#N)c(Nc5ccc(C)cc5)n23)CC(C)(C)OC4)cc1",
    "MTD [mg/kg]": 1500
  },
  {
    "molecule": "CC1(C)Cc2c(C#N)c(Nc3ccccc3)n3c(SCC(=O)c4ccc(Cl)cc4)nnc3c2CO1",
    "MTD [mg/kg]": 1150
  },
  {
    "molecule": "CCOC(=O)C(Sc1nnc2c3c(c(C#N)c(Nc4ccccc4)n12)CC(C)(C)OC3)c1ccccc1 (centres undefined)",
    "MTD [mg/kg]": 1200
  },
  {
    "molecule": "CCC1(C)CC(=O)NC1=O (centres undefined) [ETHOSUXIMIDE]",
    "MTD [mg/kg]": 1000
  },
  {
    "molecule": "CC1(C)Cc2c(C#N)c(Nc3ccccc3)n3c(SCC(=O)N(c4ccccc4)c4ccccc4)nnc3c2CO1",
    "MTD [mg/kg]": 1250
  }
]

Now, please, on to the next molecule.
Ask | Return the recorded MTD value; entry: `Cc1ccc(Nc2c(C#N)c3c(c4nnc(SCc5ccc([N+](=O)[O-])cc5)n24)COC(C)(C)C3)cc1`
Reply | 1200

====

Listed here: items and their measured TD50 at 2 min.
assay_protocol: Neurotoxicity in ip dosed mouse assessed as myorelaxation measured for 2 mins by rotarod test
Type: toxicity, organism-based
run_conditions: in vivo

Some compounds with recorded TD50 at 2 min:
[
  {
    "smiles_record": "Cc1ccc(Nc2c(C#N)c3c(c4nnc(SCC(=O)N(c5ccccc5)c5ccccc5)n24)COC(C)(C)C3)cc1",
    "TD50 at 2 min": "610 mg/kg"
  },
  {
    "smiles_record": "CC1(C)Cc2c(C#N)c(Nc3ccccc3)n3c(SCC(=O)c4ccc(Cl)cc4)nnc3c2CO1",
    "TD50 at 2 min": "> 500 mg/kg"
  }
]

Ask | Indicate its recorded TD50 at 2 min; the compound in question is `COc1cccc(NC(=O)CSc2nnc3c4c(c(C#N)c(Nc5ccc(C)cc5)n23)CC(C)(C)OC4)c1`
Reply | > 500 mg/kg

Ask | Report TD50 at 2 min for `Cc1ccc(Nc2c(C#N)c3c(c4nnc(SCc5ccccc5Cl)n24)COC(C)(C)C3)cc1`
Reply | > 500 mg/kg
